Entries with reported MIC on Staphylococcus aureus
Lab book: enter the figure in µM, no units written.

compound	reading-unit	MIC
CC[C@H](C)[C@H](NC(=O)[C@H](CC(C)C)NC(=O)[C@@H](NC(=O)[C@H](CC(C)C)NC(=O)[C@H](CO)NC(=O)[C@H](CCCCN)NC(=O)[C@@H](NC(=O)[C@H](CC(C)C)NC(=O)[C@H](CCCCN)NC(=O)[C@H](CC(C)C)NC(=O)[C@H](CO)NC(=O)[C@H](CCCN=C(N)N)NC(=O)[C@H](CCCCN)NC(=O)[C@@H](NC(=O)[C@H](Cc1ccccc1)NC(=O)[C@@H](N)CO)[C@@H](C)CC)[C@@H](C)CC)C(C)C)C(=O)N[C@@H](CCCCN)C(=O)O [SFIKRSLKLIKSLVLIK]	µM	4

Shifting focus to the compound that follows.
Lab note: CSCC[C@H](NC(=O)CNC(=O)[C@H](Cc1ccccc1)NC(=O)[C@H](C)N)C(=O)N[C@@H](C)C(=O)N[C@@H](CC(C)C)C(=O)N[C@@H](CCCCN)C(=O)N[C@@H](CC(C)C)C(=O)N[C@@H](CC(C)C)C(=O)N[C@@H](CCCCN)C(=O)N[C@@H](CCCCN)C(=O)N[C@H](C(=O)N[C@@H](CC(C)C)C(N)=O)C(C)C [AFGMALKLLKKVL] gave MIC of 4.7

====

tested on: Bacillus cereus
measurement-label: MIC

Reported MIC of CC(C)C[C@H](NC(=O)[C@H](C)NC(=O)[C@H](CO)NC(=O)[C@H](Cc1ccccc1)NC(=O)[C@@H](NC(=O)[C@H](CO)NC(=O)[C@@H]1CCCN1C(=O)[C@@H](NC(=O)[C@@H](NC(=O)[C@H](CCCCN)NC(=O)[C@H](CO)NC(=O)[C@H](C)NC(=O)[C@H](CC(C)C)NC(=O)[C@H](CCCCN)NC(=O)[C@H](Cc1ccccc1)NC(=O)[C@@H](NC(=O)[C@H](Cc1ccccc1)NC(=O)[C@@H](N)CO)C(C)C)C(C)C)C(C)C)C(C)C)C(=O)N[C@H](C(=O)N[C@@H](CCCN=C(N)N)C(=O)O)[C@@H](C)O [SFVFKLASKVVPSVFSALTR] : ≥ 117 µM

====

test system: Enterococcus faecalis NCTC 12697
Property: MIC; scope: individual molecules

Use the examples below as a reference point.
molecule	experimental-value
CC[C@H](C)[C@@H]1NC(=O)[C@H](C)NC(=O)[C@@H](NC(=O)[C@H](Cc2ccccc2)NC(=O)[C@@H](NC(=O)[C@H](CCCCN)NC(=O)[C@@H]2CCCN2C(=O)[C@H](CC(C)C)NC(=O)[C@H](Cc2ccccc2)NC(=O)[C@@H](N)CCCCN)[C@@H](C)CC)CSSC[C@@H](C(=O)O)NC(=O)[C@H](CCCCN)NC(=O)[C@H](CCCCN)NC(=O)[C@H]([C@@H](C)O)NC1=O [KFLPKIFCAITKKC]	≥ 512 µM
CC(C)C[C@H](NC(=O)[C@H](C)NC(=O)[C@H](C)NC(=O)[C@H](CC(C)C)NC(=O)[C@H](CC(N)=O)NC(=O)[C@@H](NC(=O)[C@@H](NC(=O)[C@H](CC(C)C)NC(=O)[C@H](CCCCN)NC(=O)[C@H](CCCCN)NC(=O)[C@@H](NC(=O)[C@@H](NC(=O)[C@@H](NC(=O)[C@H](CC(C)C)NC(=O)[C@H](Cc1ccccc1)NC(=O)[C@@H](N)CO)[C@@H](C)O)[C@@H](C)O)C(C)C)C(C)C)[C@@H](C)O)C(N)=O [SFLTTVKKLVTNLAAL]	≥ 32 µM
CC[C@H](C)[C@@H]1NC(=O)[C@H](C)NC(=O)[C@@H](NC(=O)[C@H](Cc2ccccc2)NC(=O)[C@@H](NC(=O)[C@H](CCCCN)NC(=O)[C@H](Cc2c[nH]c3ccccc23)NC(=O)[C@@H]2CCCN2C(=O)[C@H](CC(C)C)NC(=O)[C@H](Cc2ccccc2)NC(=O)[C@@H](N)CCCCN)[C@@H](C)CC)CSSC[C@@H](C(=O)O)NC(=O)[C@H](CCCCN)NC(=O)[C@H](CCCCN)NC(=O)[C@H]([C@@H](C)O)NC1=O [KFLPWKIFCAITKKC]	≥ 256 µM

Next up:
Reading of MIC for CC[C@H](C)[C@H](NC(=O)CNC(=O)[C@@H]1CCCN1C(=O)[C@H](CC(C)C)NC(=O)[C@@H](N)Cc1ccccc1)C(=O)N[C@@H](CC(C)C)C(=O)N[C@@H](CCCCN)C(=O)N[C@H](C(=O)N[C@@H](C)C(=O)N[C@@H](C)C(=O)N[C@@H](CCCCN)C(N)=O)C(C)C [FLPGILKVAAK] with Enterococcus faecalis NCTC 12697: ≥ 512 µM

====

system: Staphylococcus aureus NCTC 10788
Each entry below carries its recorded MIC.

MIC of CC[C@H](C)[C@H](NC(=O)[C@H](CC(C)C)NC(=O)[C@H](CO)NC(=O)[C@@H](NC(=O)[C@H](CC(C)C)NC(=O)[C@H](C)NC(=O)[C@@H]1CCCN1C(=O)[C@@H](NC(=O)[C@H](CC(C)C)NC(=O)[C@H](Cc1ccccc1)NC(=O)[C@@H]1CCCN1C(=O)[C@H](CC(C)C)NC(=O)[C@@H](N)Cc1ccccc1)[C@@H](C)CC)[C@@H](C)O)C(=O)N[C@@H](CO)C(=O)N[C@@H](CO)C(=O)N[C@@H](CC(C)C)C(N)=O , assay on Staphylococcus aureus NCTC 10788, is ≥ 50 µM

Form field, MIC with Staphylococcus aureus NCTC 10788, item CC[C@H](C)[C@H](NC(=O)[C@H](C)NC(=O)CNC(=O)[C@H](Cc1ccccc1)NC(=O)[C@@H](N)Cc1ccccc1)C(=O)N[C@@H](C)C(=O)N[C@@H](C)C(=O)N[C@@H](C)C(=O)N[C@@H](CC(C)C)C(=O)N1CCC[C@H]1C(=O)N[C@@H](Cc1cnc[nH]1)C(=O)N[C@H](C(=O)N[C@H](C(=O)N[C@@H](CO)C(=O)N[C@@H](C)C(=O)N[C@H](C(=O)N[C@@H](CCCCN)C(=O)N[C@@H](CC(N)=O)C(=O)N[C@@H](C)C(=O)N[C@@H](CC(C)C)C(=O)O)[C@@H](C)CC)[C@@H](C)CC)C(C)C : 16 µM

Sample CC[C@H](C)[C@@H]1NC(=O)[C@H](CC(C)C)NC(=O)[C@@H](NC(=O)[C@H](Cc2ccccc2)NC(=O)[C@H](CC(C)C)NC(=O)[C@H](CCCCN)NC(=O)[C@@H]2CCCN2C(=O)[C@H](CC(C)C)NC(=O)[C@H](C)NC(=O)[C@H](C)NC(=O)[C@H](CC(C)C)NC(=O)[C@H](C)NC(=O)[C@H](CC(C)C)NC(=O)[C@H](CO)NC(=O)[C@H](CC(C)C)NC(=O)[C@@H](N)Cc2ccccc2)CSSC[C@@H](C(=O)O)NC(=O)[C@H](CCCCN)NC(=O)[C@H](CCCCN)NC(=O)[C@H](Cc2ccccc2)NC1=O , system: Staphylococcus aureus NCTC 10788. Its MIC is ≥ 32 µM

====

Candida parapsilosis ATCC 22019 MIC data

Past entries and their recorded results:
structure-notation	measurement-label	experimental-value
CC[C@H](C)[C@H](N)C(=O)N[C@@H](CC(=O)O)C(=O)N[C@@H](Cc1c[nH]c2ccccc12)C(=O)N[C@@H](CCCCN)C(=O)N[C@@H](CCCCN)C(=O)N[C@@H](CC(C)C)C(=O)N[C@@H](CC(C)C)C(=O)N[C@@H](CC(=O)O)C(=O)N[C@@H](C)C(=O)N[C@@H](C)C(=O)N[C@@H](CCCCN)C(=O)N[C@@H](CCC(N)=O)C(=O)N[C@H](C(=O)N[C@@H](CC(C)C)C(N)=O)[C@@H](C)CC	MIC	≥ 64 µM
CC[C@H](C)[C@H](N)C(=O)N[C@@H](CC(N)=O)C(=O)N[C@@H](CC(C)C)C(=O)N[C@@H](CCCCN)C(=O)N[C@@H](C)C(=O)N[C@H](C(=O)N[C@H](C(=O)N[C@@H](C)C(=O)N[C@@H](CC(C)C)C(=O)N[C@@H](C)C(=O)N[C@@H](CCCCN)C(=O)N[C@@H](CCCCN)C(=O)N[C@@H](CC(C)C)C(=O)N[C@@H](CC(C)C)C(=O)O)[C@@H](C)O)[C@@H](C)CC	MIC	1.66 µM
CC[C@H](C)[C@H](NC(=O)[C@H](CC(C)C)NC(=O)[C@H](CC(=O)O)NC(=O)[C@H](CO)NC(=O)[C@H](CCCN=C(N)N)NC(=O)[C@@H](N)CO)C(=O)N[C@H](C(=O)N[C@@H](Cc1cnc[nH]1)C(=O)N[C@@H](CCC(N)=O)C(=O)N[C@@H](CCCN=C(N)N)C(=O)N[C@@H](CC(C)C)C(=O)N[C@@H](Cc1ccccc1)C(N)=O)C(C)C	MIC	≥ 272 µM

Please turn your attention to the following entry.
Record CC[C@H](C)[C@H](NC(=O)[C@H](CCCCN)NC(=O)[C@H](CCC(=O)O)NC(=O)[C@H](CO)NC(=O)[C@H](CCCN=C(N)N)NC(=O)[C@@H](N)CO)C(=O)N[C@H](C(=O)N[C@@H](Cc1cnc[nH]1)C(=O)N[C@@H](CCC(N)=O)C(=O)N[C@@H](CCCN=C(N)N)C(=O)N[C@@H](CC(C)C)C(=O)N[C@@H](Cc1ccccc1)C(N)=O)C(C)C has Candida parapsilosis ATCC 22019 MIC equal to ≥ 267 µM
